Target: Human recombinant LSD1 protein (Homo sapiens (Human), UniProt O60341)
Experiment: LSD1 enzymatic activity, AlphaLISA demethylation assay
Details: 4 nM LSD1, 80 nM Biotin-H3K4Me peptide substrate, 1% DMSO, 60 minutes reaction
quantity_measured: pIC50
In plain terms, pIC50 is the concentration in mol/L turned into minus its base-10 logarithm.

Exercise: Annotate the molecule CN1CCC(Cn2cnc3c(-c4ccc(C#N)c(F)c4)c(-c4ccc5c(ccn5C)c4)ncc32)CC1 with its measured pIC50.
Key: 6.63

Exercise: Annotate the molecule CN1CC[C@H](Cn2cnc3c(-c4ccc(C#N)c(F)c4)c(-c4ccc5c(c4)OCCN5C)ncc32)C1 with its measured pIC50.
Key: 7.92

Exercise: Annotate the molecule CN1CCC(Cn2cnc3c(-c4ccc(C#N)cc4)c(-c4ccc5c(c4)OCCN5C)ncc32)C1 (centres unmarked) with its measured pIC50.
Key: 7.53

Exercise: Annotate the molecule CN1CCOc2ccc(-c3ncc4c(ncn4C[C@H]4CCNC4)c3-c3ccc(C#N)c(F)c3)cc21 with its measured pIC50.
Key: 7.33

Exercise: Annotate the molecule Cn1ncc2cc(-c3ncc4c(ncn4C[C@H]4CCNC4)c3-c3ccc(C#N)cc3)ccc21 with its measured pIC50.
Key: 7.40

Exercise: Annotate the molecule Cn1ncc2cc(-c3ncc4c(ncn4CC4CCNCC4)c3-c3ccc(C#N)cc3)ccc21 with its measured pIC50.
Key: 7.86

Exercise: Annotate the molecule CN1CCC(Cn2cnc3c(-c4ccc(C#N)cc4)c(-c4ccc5c(cnn5C)c4)ncc32)C1 (centres unmarked) with its measured pIC50.
Key: 7.06

Exercise: Annotate the molecule CN1CCC(Cn2cnc3c(-c4ccc(C#N)c(F)c4)c(-c4ccc5c(cnn5C)c4)ncc32)CC1 with its measured pIC50.
Key: 7.40

###

Target: Human recombinant LSD1 protein (Homo sapiens (Human))
Test: LSD1 enzymatic activity, AlphaLISA demethylation assay
Conditions: 4 nM LSD1, 80 nM Biotin-H3K4Me peptide substrate, 1% DMSO, 60 minutes reaction
quantity_measured: IC50 (nM)
Only the number, expressed in nM, is required.

Exercise: Annotate the compound CN1CCC(Cn2cnc3c(-c4ccc(C#N)cc4)c(-c4ccc5c(c4)OCCN5C)ncc32)CC1 with its measured IC50.
Key: 53.1

Exercise: Annotate the compound Cn1ncc2cc(-c3ncc4c(ncn4CC4CCCNCC4)c3-c3ccc(C#N)cc3)ccc21 (stereo not shown) with its measured IC50.
Key: 16.2

Exercise: Annotate the compound Cn1ncc2cc(-c3ncc4c(ncn4CC4CCCNCC4)c3-c3ccc(C#N)c(F)c3)ccc21 (stereo not shown) with its measured IC50.
Key: 17.3

Exercise: Annotate the compound CN1CCOc2cc(-c3ncc4c(ncn4CC4CCNC4)c3-c3ccc(C#N)cc3)ccc21 (stereo not shown) with its measured IC50.
Key: 5.67

Exercise: Annotate the compound Cc1nc2cc(-c3ncc4c(ncn4CC4CCN(C)CC4)c3-c3ccc(C#N)c(F)c3)ccc2s1 with its measured IC50.
Key: 928

Exercise: Annotate the compound CN1CCC(Cn2cnc3c(-c4ccc(C#N)c(F)c4)c(-c4ccc5c(c4)OCCN5C)ncc32)CC1 with its measured IC50.
Key: 16.2

Exercise: Annotate the compound CN1CCC(Cn2cnc3c(-c4ccc(C#N)c(F)c4)c(-c4ccc5c(c4)CC(=O)N5C)ncc32)CC1 with its measured IC50.
Key: 220

Exercise: Annotate the compound CN1CCOc2cc(-c3ncc4c(ncn4CC4CCNCC4)c3-c3ccc(C#N)c(F)c3)ccc21 with its measured IC50.
Key: 8.01

Exercise: Annotate the compound Cn1ncc2cc(-c3ncc4c(ncn4CC4CCNCC4)c3-c3ccc(C#N)c(F)c3)ccc21 with its measured IC50.
Key: 11.8

Exercise: Annotate the compound N#Cc1ccc(-c2c(-c3ccc4c(c3)OCCO4)ncc3c2ncn3C[C@H]2CCNC2)cc1F with its measured IC50.
Key: 9.57

Exercise: Annotate the compound CN1CCC(Cn2cnc3c(-c4ccc(C#N)cc4)c(-c4ccc5c(ccn5C)c4)ncc32)CC1 with its measured IC50.
Key: 68

Exercise: Annotate the compound CCn1ncc2cc(-c3ncc4c(ncn4CC4CCN(C)CC4)c3-c3ccc(C#N)c(F)c3)ccc21 with its measured IC50.
Key: 372

Exercise: Annotate the compound CN1CC[C@H](Cn2cnc3c(-c4ccc(C#N)c(F)c4)c(-c4ccc5c(cnn5C)c4)ncc32)C1 with its measured IC50.
Key: 28

Exercise: Annotate the compound CN1CCOc2cc(-c3ncc4c(ncn4CC4CCNCC4)c3-c3ccc(C#N)cc3)ccc21 with its measured IC50.
Key: 14.7

Exercise: Annotate the compound CN1CCC(Cn2cnc3c(-c4ccc(C#N)cc4)c(-c4ccc5c(c4)OCO5)ncc32)CC1 with its measured IC50.
Key: 15.7

Exercise: Annotate the compound CCn1ncc2cc(-c3ncc4c(ncn4CC4CCN(C)CC4)c3-c3ccc(C#N)cc3)ccc21 with its measured IC50.
Key: 116

Exercise: Annotate the compound CN1CCOc2cc(-c3ncc4c(ncn4CC4CCCNCC4)c3-c3ccc(C#N)cc3)ccc21 (stereo not shown) with its measured IC50.
Key: 11

Exercise: Annotate the compound Cn1ccc2cc(-c3ncc4c(ncn4C[C@H]4CCNC4)c3-c3ccc(C#N)c(F)c3)cnc21 with its measured IC50.
Key: 53.3

Exercise: Annotate the compound CN1CCOc2cc(-c3ncc4c(ncn4C[C@H]4CCNC4)c3-c3ccc(C#N)c(F)c3)ccc21 with its measured IC50.
Key: 12.1

Exercise: Annotate the compound CN1CCC(Cn2cnc3c(-c4ccc(C#N)cc4)c(-c4ccc5nn(C)cc5c4)ncc32)CC1 with its measured IC50.
Key: 115

Exercise: Annotate the compound CN1CCOc2cc(-c3ncc4c(ncn4CC4CCCNCC4)c3-c3ccc(C#N)c(F)c3)ccc21 (stereo not shown) with its measured IC50.
Key: 13

Exercise: Annotate the compound CN1CCC(Cn2cnc3c(-c4ccc(C#N)cc4)c(-c4ccc5c(cnn5C)c4)ncc32)CC1 with its measured IC50.
Key: 66.3

Exercise: Annotate the compound CN1CCC(Cn2cnc3c(-c4ccc(C#N)c(F)c4)c(-c4ccc5c(c4)OCO5)ncc32)CC1 with its measured IC50.
Key: 27.8

Exercise: Annotate the compound CN1CCC(Cn2cnc3c(-c4ccc(C#N)c(F)c4)c(-c4ccc5nn(C)cc5c4)ncc32)CC1 with its measured IC50.
Key: 97.6
